- Tested on: SK-OV-3 ovarian
- Assay Info: NCI tumour cell line growth inhibition, 48 h
So I've got a bunch of compounds here, and I need their TGI values.

Below, each entry is followed by its recorded TGI result.
Compound | TGI
CCCc1nn(C)c2c(=O)[nH]c(-c3cc(S(=O)(=O)N4CCN(C)CC4)ccc3OCC)nc12 | > 100 µM
O=C(Nc1ccccc1)N(CCN(Cc1ccccc1)C(=O)Nc1ccccc1)CCN(Nc1ccccc1)C(=O)Nc1ccccc1 | > 100 µM
CN(C)c1ccc(/C=c2\sc3nnc(-c4ccco4)n3c2=O)cc1 | > 100 µM

Would you mind giving TGI for every compound in the list below?
1. COc1cnc2c(c1)C(=O)c1c-2n(CCCN2CCCC2)c(=O)c2cc([N+](=O)[O-])ccc12
2. CCN1CCN(CCNc2nccc(-c3c(-c4ccc(F)c(O)c4)nc4occn34)n2)S1(=O)=O
3. COc1ccc(C(=O)C2CCC(C(=O)O)C2)cc1 (stereo unspecified)
4. Cc1ccc(OP(=O)(Oc2ccc(C)cc2)N2C=Cc3ccccc3C2C#N)cc1 (stereo unspecified)
5. CC1=C(C#N)C23C(=O)N(c4ccccc4)C(=O)C2=C(O)C=CC3(O)N1Cc1ccc(Cl)cc1Cl (stereo unspecified)
6. CC(NC1=NCCO1)c1ccccc1Cl (stereo unspecified)

// result
1. 0.843 µM
2. > 100 µM
3. > 100 µM
4. > 100 µM
5. 23.2 µM
6. > 100 µM

* * *

Assign TGI to each entry below.
- Tested on: HT29 colon
- Assay Info: NCI tumour cell line growth inhibition, 48 h

Answered cases to consult:
Molecule | Target Or System | TGI
Cc1cc(N(CCC#N)CCC#N)ccc1/C(N=Nc1ccc([N+](=O)[O-])cc1)=N\NC(=O)c1cc(Cl)ccc1O | HT29 colon | > 100 µM
CN(C)CCNc1ccc2ncn3c4ccc(O)cc4c(=O)c1c23 | HT29 colon | 7.39 µM
O=C(CC1(O)C(=O)Nc2c(Cl)cc(Cl)cc21)c1ccccc1 (stereo unspecified) | HT29 colon | > 100 µM
CCN1CCN(CCNc2nccc(-c3c(-c4ccc(F)c(O)c4)nc4occn34)n2)S1(=O)=O | HT29 colon | > 100 µM
c1ccc2c3c(ccc2c1)-c1[nH]ncc1CCO3 | HT29 colon | > 100 µM
Cc1nc2c(c(N3CCN(C)CC3)n1)Cc1ccccc1-2 | HT29 colon | > 100 µM
O=c1[nH]c(Nc2ccc(Br)c(C(F)(F)F)c2)nc2nc[nH]c12 | HT29 colon | > 100 µM
Nc1nc(=O)n(C2CCC(CO)O2)cc1F (stereo unspecified) | HT29 colon | > 100 µM

Fill in TGI for each of the 4 molecules listed.
1. NC(=O)c1cc(N2CC2)c([N+](=O)[O-])cc1[N+](=O)[O-]
2. COc1ccc(/C=N\N(C)Cc2cccc3ccsc23)cc1
3. CCC1=C(c2ccc(OC)cc2)C(C)(C)Oc2c1ccc(O)c2CN1CCCC1
4. CC(C)C1CSC2N1C(=O)C2(OCc1ccccc1)C1CC1 (stereo unspecified)

// result
1: > 200 µM; 2: > 100 µM; 3: 8.94 µM; 4: > 100 µM

Hello, I would appreciate it if you could give TGI for each entry below.
1. O=c1onc2n1-c1ccc(Cl)cc1C(=S)N1CSCC21 (stereo unspecified)
2. COc1ccc(C(=O)C2CCC(C(=O)O)C2)cc1 (stereo unspecified)
3. COc1c2c(c3c(c1OC)c(=O)c1ccccc1n3C)OCO2
4. Fc1cccc(COc2ccc(Nc3ncnc4onc(-c5ccccc5)c34)cc2)c1
5. CC(NC1=NCCO1)c1ccccc1Cl (stereo unspecified)
6. Cc1cc2c(F)c(Oc3ncnc(Nc4ccc(N5C[C@@H](C)N[C@@H](C)C5)cc4)c3C#N)cc(F)c2[nH]1

// result
1. 53.1 µM
2. > 100 µM
3. > 100 µM
4. > 34 µM
5. > 100 µM
6. 2.49 µM

* * *

- System: RPMI-8226 leukemia
- Assay Info: NCI tumour cell line growth inhibition, 48 h
Readout Type: TGI (µM)
One number for each entry, in µM.

Examples with answers:
Compound | Uom | TGI
COc1ccc(C2CC(c3c(O)ccc4ccccc34)=NN2)cc1OC (configuration not stated) | µM | 65
CN(C)CCNc1ccc2ncn3c4ccc(O)cc4c(=O)c1c23 | µM | 13.1
COc1cc(-n2ccnc2-c2ccc3ccccc3c2)cc(OC)c1OC | µM | 20.6
COc1ccc(Nc2nc(NCCNc3ccnc4cc(Cl)ccc34)nc(N3CCOCC3)n2)cc1 | µM | 13.1
O=C1C2CCN(CC2)C1CN1CCOCC1 (configuration not stated) | µM | 13.7
CC1=C([Te]c2ccccc2)C(=O)c2ccccc2C1=O | µM | 1.31

// query # return recorded TGI for entry CCOC(=O)C(=Cc1ccc(C#N)cc1)C(=O)OCC
// result 7.71

* * *

- Tested on: HCC-2998 colon
- Assay Info: NCI tumour cell line growth inhibition, 48 h
Assign TGI to each entry below.

Compound | Target Or System | TGI
Cc1ccc(NCC2(/N=C/c3ccccc3)OC(CO)C(O)C2O)cc1 (stereo not drawn) | HCC-2998 colon | > 100 µM

Dear colleague, could you please provide TGI for the compounds listed below?
1. CSC(=NC(=O)c1ccccc1Cl)SCCSC(=NC(=O)c1ccccc1Cl)SC
2. CN(C)c1ccc(/C=c2\sc3nnc(-c4ccco4)n3c2=O)cc1

// result
> 100 µM
> 100 µM

* * *

Provide the recorded GI50 for the entries that follow.
- System: KM12 colon
- Assay Info: NCI tumour cell line growth inhibition, 48 h

Entry Smiles | GI50
CC1(C)N=C(N)N=C(N)N1c1ccc(CNC(=O)Nc2ccc(S(=O)(=O)F)c(Cl)c2)c(Cl)c1 | 589 nM
COc1cc(CCC[P+](c2ccccc2)(c2ccccc2)c2ccccc2)c(OC)c2c1OCO2 | 828 nM

We next turn to a different compound, shown below.
// query Recall and state the measured GI50 for CCOC(=O)C(=Cc1ccc(C#N)cc1)C(=O)OCC .
// result 2860 nM

* * *

- Tested on: NCI-H460 lung
- Assay Info: NCI tumour cell line growth inhibition, 48 h
Readout Type: TGI

Molecule | TGI
CN(C)c1ccc(/C=c2\sc3nnc(-c4ccco4)n3c2=O)cc1 | > 100 µM
O=C1c2ccccc2N(O)C1(c1ccccc1)C1CCCC=C1N1CCOCC1 (stereo not drawn) | > 100 µM

Alright, here's another molecule for you.
// query Please supply the value of reported TGI for the item O=C(C[n+]1ccccc1)N/N=C(/CCC(=O)N(Cc1ccccc1)Cc1ccccc1)CC(=O)c1ccccc1
// result > 100 µM

* * *

Would you kindly list TGI for each of these compounds?
- Test system: UO-31 renal
- Assay Info: NCI tumour cell line growth inhibition, 48 h

Below, each entry is followed by its recorded TGI result.
Compound | TGI
Cn1c(-c2ccc(C=O)o2)ccc1-c1ccc(C=O)o1 | > 100 µM
COc1ccc(NC(=O)Oc2ccc3c(C)cc(=O)oc3c2)c(OC)c1 (tested in a mixture with another compound) | > 100 µM
CC1C(C)(C)C23CC12C1(OCCO1)C3Br (stereo not drawn) | > 100 µM

I'm hoping you can list TGI for every compound here, please.
1. NC(=O)CC1OC(=O)Cc2cc3c(c(O)c21)C(=O)c1c(O)cccc1C3=O (stereo not drawn)
2. NS(=O)(=O)c1ccc(NC(=O)N/N=C/c2ccccc2[N+](=O)[O-])cc1
3. Cc1ccc(NCC2(/N=C/c3ccccc3)OC(CO)C(O)C2O)cc1 (stereo not drawn)
4. CSc1cc([C@@H]2C[C@H]2c2ccc(Cl)cc2)on1
5. C#CC1(O)CCC2[C@@H]3CCc4cc(Oc5nc(F)nc(-c6c(C)c(C(=O)OCC)n7ccccc67)n5)ccc4C3CC[C@@]21C (stereo partly drawn)
6. CN(C)c1ccc(/C=c2\sc3nnc(-c4ccco4)n3c2=O)cc1
7. CCOC(=O)c1[nH]c2cc(Cl)ccc2c1[C@@H](C(=O)NC(C)(C)C)N(CC)C(=O)CCCCC#Cc1cccc2c1CN(C1CCC(=O)NC1=O)C2=O (stereo partly drawn)

// result
1. > 100 µM
2. > 100 µM
3. > 100 µM
4. > 100 µM
5. > 100 µM
6. > 100 µM
7. 2.95 µM

* * *

- Test system: NCI-H522 lung
- Assay Info: NCI tumour cell line growth inhibition, 48 h
Hi there, I'd appreciate the recorded TGI for every entry that follows.

Entry Smiles | TGI
CCOC(=O)c1c(O)cn2c1[nH]c1cccc3cccc2c31 | > 100 µM
CCC(CC)n1cnc2c(-c3cnc(N)cn3)nc(N3CC4CCC(C3)O4)nc21 | > 100 µM

Consider the additional compound presented here.
// query Please give measured TGI of the following entry: O=c1[nH]c(NCc2cccnc2)nc2nc[nH]c12
// result > 100 µM
